# Volumetric Productivity Average listing for each entry below
tested on: recombinant Escherichia coli KO11; assay: Batch fermentation of E. coli KO11 in 1% CSL medium and xylose with nutrient additives: ethanol production and cell growth; type: cell-based; conditions: 1% CSL+xylose; additive 2 g/L unless indicated

Record excerpt, results attached:
O=C(O)CC(O)(CC(=O)O)C(=O)O [Citrate] = 0.300 grams ethanol/(liter)(hour)
O=C(O)CC(C(=O)O)C(O)C(=O)O (stereo not shown) [Isocitrate] = 0.344 grams ethanol/(liter)(hour)
N[C@@H](CCC(=O)O)C(=O)O [Glutamate, glutamate] = 0.449 grams ethanol/(liter)(hour)
CC(=O)C(=O)O [Pyruvate, pyruvate] = 0.617 grams ethanol/(liter)(hour)
C[C@H](N)C(=O)O = 0.226 grams ethanol/(liter)(hour)

## Input Lookup: Volumetric Productivity Average / recombinant Escherichia coli KO11 / O=C(O)/C=C/C(=O)O [Fumarate]
## Output 0.297 grams ethanol/(liter)(hour)

## Input I'm curious: which Volumetric Productivity Average was measured for N[C@@H](CC(=O)O)C(=O)O [Aspartate, aspartate] tested on recombinant Escherichia coli KO11?
## Output 0.291 grams ethanol/(liter)(hour)

## Input Short answer please: Volumetric Productivity Average, recombinant Escherichia coli KO11, entry O=C(O)CC(O)C(=O)O (stereo not shown) [Malate, malate]
## Output 0.255 grams ethanol/(liter)(hour)

## Input Missing value: Volumetric Productivity Average, recombinant Escherichia coli KO11, entry O=C(O)CCC(=O)O [Succinate, succinate] . Fill in?
## Output 0.365 grams ethanol/(liter)(hour)

## Input Request - read-out Volumetric Productivity Average | tested on recombinant Escherichia coli KO11 | compound O=C(O)CC(=O)C(=O)O [Oxaloacetate]
## Output 0.246 grams ethanol/(liter)(hour)
